# SYSTEM_UNDER_TEST: HIV-1 TAR RNA
# Format: binding
# MEASUREMENT_CONDITIONS: EMSA; positional scanning library, Table S1; with tRNA; read-out: Kd (nM) w/tRNA
Non-standard residues stand in square brackets, D forms with d. Residues, ends and D or L forms follow the SMILES beside them.
VALUE_TYPE: Kd (nM)

[[record]]
compound = "CC[C@H](C)[C@@H]1NC(=O)[C@H](CCCNC(=N)N)NC(=O)[C@H](CCCNC(=N)N)NC(=O)CNC(=O)[C@H](CCCCN)NC(=O)[C@H](CCCNC(=N)N)NC(=O)[C@H]([C@@H](C)O)NC(=O)[C@H](CCCNC(=N)N)NC(=O)[C@H](C(C)C)NC(=O)[C@H](CCCNC(=N)N)NC(=O)[C@@H]2CCCN2C(=O)[C@H]2CCCN2C(=O)[C@H](C(C)C)NC(=O)[C@H](CCCNC(=N)N)NC1=O [JB-84] (cyclo(RVRTRKGRRIRV[dP]P))"
system_under_test = "HIV-1 TAR RNA"
readout_relation = "="
number = 50

[[record]]
compound = "CC[C@H](C)[C@@H]1NC(=O)[C@H](CCCNC(=N)N)NC(=O)[C@H](CCCNC(=N)N)NC(=O)CNC(=O)[C@H](CCCCN)NC(=O)[C@H](CCCNC(=N)N)NC(=O)[C@H]([C@@H](C)O)NC(=O)[C@H](CCCNC(=N)N)NC(=O)[C@H](C(C)C)NC(=O)[C@H](CCCNC(=N)N)NC(=O)[C@@H]2CCCN2C(=O)[C@H]2CCCN2C(=O)[C@H](C)NC(=O)[C@H](CCCNC(=N)N)NC1=O [JB-83] (cyclo(RVRTRKGRRIRA[dP]P))"
system_under_test = "HIV-1 TAR RNA"
readout_relation = ">"
number = 1000

[[record]]
compound = "CC[C@H](C)[C@@H]1NC(=O)[C@H](CCCNC(=N)N)NC(=O)[C@H](CCCNC(=N)N)NC(=O)CNC(=O)[C@H](CCCCN)NC(=O)[C@H](CCCNC(=N)N)NC(=O)[C@H]([C@@H](C)O)NC(=O)[C@H](CCCNC(=N)N)NC(=O)[C@H](C)NC(=O)[C@H](CCCNC(=N)N)NC(=O)[C@@H]2CCCN2C(=O)[C@H]2CCCN2C(=O)[C@H]([C@@H](C)CC)NC(=O)[C@H](CCCNC(=N)N)NC1=O [JB-66] (cyclo(RARTRKGRRIRI[dP]P))"
system_under_test = "HIV-1 TAR RNA"
readout_relation = "="
number = 100

